Test system: U251 CNS
Assay Protocol: NCI tumour cell line growth inhibition, 48 h

{"Compound": "C=CCC1(CN(C)C)CC/C(=C\\c2ccc(Cl)cc2)C1=O (stereo not drawn)", "TGI": "> 100 µM"}
{"Compound": "O=C(N(O)c1ccccc1Cl)C(O)(c1ccccc1)c1ccccc1", "TGI": "> 100 µM"}
{"Compound": "Nc1ccn([C@H]2CO[C@@H](CO)[C@@H]2O)c(=O)n1", "TGI": "> 100 µM"}

* * *

Test system: 786-0 renal
Assay Protocol: NCI tumour cell line growth inhibition, 48 h; in the data active = GI50 below about 0.43 µM; inactive = the rest
Classes used: t = active, f = inactive

{"Mol Smiles": "COC(=O)C1=CN(CC2=CC(=O)C(C)=CC2=O)C=C(C(=O)OC)C1c1cccc(OC)c1", "Assigned Category": "f"}
{"Mol Smiles": "COc1cc(/C=C\\c2cc(OC)c(OC)c(OC)c2)cc(N/C=C\\C(=O)c2cc(OC)c(OC)c(OC)c2)c1OC", "Assigned Category": "f"}
{"Mol Smiles": "C#Cc1nc(Nc2cc(C)[nH]n2)c2ccccc2n1", "Assigned Category": "t"}

* * *

Tested on: ACHN renal
Assay Protocol: NCI tumour cell line growth inhibition, 48 h
# TGI per entry

{"Compound": "COc1ccc(/C=C(\\C(C)=O)C(=O)Nc2ccccc2)cc1", "Target Or System": "ACHN renal", "TGI": "> 100 µM"}
{"Compound": "COc1ccc(-c2nsc3c2NC(=O)CC3c2cccc(OC)c2)cc1 (configuration not stated)", "Target Or System": "ACHN renal", "TGI": "> 100 µM"}
{"Compound": "CC(=O)OCC1OC(OC2CC3C(C)(C)C(O)CC[C@]3(C)C3CCC45CC4(CCC5[C@@H](C)CC(O)C(O)C(C)(C)O)[C@]23C)C(O)C(O)C1O (some centres not stated)", "Target Or System": "ACHN renal", "TGI": "> 10 µM"}
{"Compound": "COc1ccc(Cn2c(N)c(S(=O)(=O)c3ccc(Cl)cc3)c3nc(C#N)c(C#N)nc32)cc1", "Target Or System": "ACHN renal", "TGI": "> 50 µM"}
{"Compound": "COCOC1C=CCCCC2=CC(C)=C(CC1)O2 (configuration not stated)", "Target Or System": "ACHN renal", "TGI": "> 100 µM"}
{"Compound": "Nc1n[nH]c(=O)c2c1c(I)cn2C1OC(CO)C(O)C1O (configuration not stated)", "Target Or System": "ACHN renal", "TGI": "> 100 µM"}
{"Compound": "COc1ccc(OC)c(/C=C(/C#N)c2ccccc2)c1", "Target Or System": "ACHN renal", "TGI": "> 100 µM"}
{"Compound": "CC1CN=C(N(C(=O)Nc2ccccc2)c2ccc(Cl)c(Cl)c2)S1 (configuration not stated)", "Target Or System": "ACHN renal", "TGI": "> 100 µM"}
{"Compound": "O=C1c2cccc3cccc(c23)C(=O)N1CCCCCN1CCN(CCCCCOc2ccc(-c3nc4ccc(N5CCOCC5)cc4[nH]3)cc2)CC1", "Target Or System": "ACHN renal", "TGI": "> 56.1 µM"}
{"Compound": "O=C(NNc1ccccc1)C(=O)NNc1ccccc1", "Target Or System": "ACHN renal", "TGI": "> 100 µM"}
{"Compound": "CCOC(=O)c1ccc(N=Nc2cc(C(=O)OCC)ccc2O)cc1", "Target Or System": "ACHN renal", "TGI": "> 100 µM"}
{"Compound": "CC(C)(C)[Si](C)(C)OC1C(=O)C[C@H]2CCCC[C@@H]12 (some centres not stated)", "Target Or System": "ACHN renal", "TGI": "> 100 µM"}

* * *

# TGI per entry
Test system: ACHN renal
Assay Protocol: NCI tumour cell line growth inhibition, 48 h

{"Compound": "NCC(=O)Nc1ccc(S(=O)(=O)O)c2cc(S(=O)(=O)O)cc(S(=O)(=O)O)c12", "Target Or System": "ACHN renal", "TGI": "> 100 µM"}
{"Compound": "CC1(C)N=C(N)N=C(N)N1c1ccc(CCCCc2ccc(Cl)c(S(=O)(=O)F)c2)c(Cl)c1", "Target Or System": "ACHN renal", "TGI": "21.1 µM"}
{"Compound": "O=C(NNC(=O)c1ccccc1O)c1cccc(Br)c1", "Target Or System": "ACHN renal", "TGI": "> 100 µM"}
{"Compound": "CN1CC[C@@H](c2c(O)cc(O)c3c(=O)cc(-c4ccc(C(F)(F)F)cc4Cl)oc23)[C@@H]1CO", "Target Or System": "ACHN renal", "TGI": "38 µM"}
{"Compound": "COc1ccc(/C(Cl)=C(\\C=O)c2ccc(OC)cc2)cc1", "Target Or System": "ACHN renal", "TGI": "> 100 µM"}
{"Compound": "C=C(C)C1CCC2(C)CC1c1c(c(C)cc3c1[nH]c1ccccc13)O2 (stereo not drawn)", "Target Or System": "ACHN renal", "TGI": "> 25 µM"}
{"Compound": "O=c1c2ncn(C3CCCO3)c2n(-c2ccccc2)c(=S)n1-c1ccccc1 (stereo not drawn)", "Target Or System": "ACHN renal", "TGI": "> 100 µM"}
{"Compound": "[N-]=[N+]=NCc1nc(N)c2c3c(sc2n1)CCCC3", "Target Or System": "ACHN renal", "TGI": "14.1 µM"}
{"Compound": "COC1=C(Br)[C@H](O)[C@@]2(C=C1Br)CC(C(=O)NCCCOc1c(Br)cc(C(O)CNC(C)=O)cc1Br)=NO2 (stereo partly drawn)", "Target Or System": "ACHN renal", "TGI": "> 10 µM"}
{"Compound": "CC12CCC3c4ccc(O)cc4CCC3C1C/C(=N\\O)C2O (stereo not drawn)", "Target Or System": "ACHN renal", "TGI": "> 100 µM"}
{"Compound": "CC1(C)CC(=O)CC(=Nc2ccc([N+](=O)[O-])cc2)C1", "Target Or System": "ACHN renal", "TGI": "> 100 µM"}
{"Compound": "CC(C(=O)O)c1cccc(Oc2ccccc2)c1 (stereo not drawn)", "Target Or System": "ACHN renal", "TGI": "> 100 µM"}
{"Compound": "CCc1nc(N)nc(N)c1-c1ccc([N+](C)(C)C)cc1", "Target Or System": "ACHN renal", "TGI": "> 100 µM"}

* * *

# TGI per entry
Tested on: OVCAR-3 ovarian
Assay Protocol: NCI tumour cell line growth inhibition, 48 h
Endpoint Name: TGI

{"Compound": "COc1cc2c(cc1OC)C1C[C@]3(CCN1CC2)C(=O)N(c1ccccc1)C(=O)N3C(C)=O (some centres not stated)", "Endpoint Name": "TGI", "Measured Value": "> 200 µM"}
{"Compound": "CSc1nc(NC2OC(COC(C)=O)C(OC(C)=O)C(OC(C)=O)C2OC(C)=O)c(N=CC=Nc2c(NC3OC(COC(C)=O)C(OC(C)=O)C(OC(C)=O)C3OC(C)=O)nc(SC)n(C)c2=O)c(=O)n1C (configuration not stated)", "Endpoint Name": "TGI", "Measured Value": "> 50 µM"}
{"Compound": "COC1CCCCN1C(=O)c1ccccc1 (configuration not stated)", "Endpoint Name": "TGI", "Measured Value": "> 25.3 µM"}
{"Compound": "COc1ccc(-c2nnc(N3CCN(C(=O)CN4CCN(c5ccccc5)CC4)CC3)nc2-c2ccc(OC)cc2)cc1", "Endpoint Name": "TGI", "Measured Value": "> 100 µM"}
{"Compound": "COc1ccc2c(C(=O)c3cn(CCN4CCOCC4)c4ccccc34)cccc2c1", "Endpoint Name": "TGI", "Measured Value": "> 25.5 µM"}
{"Compound": "CN(C)c1ccc(N=Nc2ccccn2)c(O)c1", "Endpoint Name": "TGI", "Measured Value": "> 100 µM"}
{"Compound": "O=C(NNC(=O)c1ccccc1O)c1cccc(Br)c1", "Endpoint Name": "TGI", "Measured Value": "> 100 µM"}
{"Compound": "Cc1ccc(NC(=O)CCc2nnc(N)o2)cc1", "Endpoint Name": "TGI", "Measured Value": "> 100 µM"}
{"Compound": "Cn1c(=O)c(Oc2ccc(F)cc2)cc2cnc(NC3CCOCC3)nc21", "Endpoint Name": "TGI", "Measured Value": "> 25 µM"}
{"Compound": "COC(=O)c1nsc(OC)c1Cl", "Endpoint Name": "TGI", "Measured Value": "> 100 µM"}
{"Compound": "CC(=O)N(C)CCc1c[nH]c2ccccc12", "Endpoint Name": "TGI", "Measured Value": "> 100 µM"}
{"Compound": "O=C(Nc1cc(C(F)(F)F)ccc1Cl)c1cccc(NC2=C(Cl)C(=O)N(Cc3ccccc3)C2=O)c1", "Endpoint Name": "TGI", "Measured Value": "> 100 µM"}
{"Compound": "NCC(=O)Nc1ccc(S(=O)(=O)O)c2cc(S(=O)(=O)O)cc(S(=O)(=O)O)c12", "Endpoint Name": "TGI", "Measured Value": "> 100 µM"}
{"Compound": "CCOC1c2cc(C(C)C)c(O)c(O)c2[C@@]23CCCC(C)(C)C2C1OC3=O (some centres not stated)", "Endpoint Name": "TGI", "Measured Value": "> 100 µM"}
{"Compound": "C[Si](C)(C)/C(Br)=C\\CCN1C(=O)CCC1=O", "Endpoint Name": "TGI", "Measured Value": "> 100 µM"}
{"Compound": "COc1cccc(C2CC23C(=O)NC(=O)NC3=O)c1 (configuration not stated)", "Endpoint Name": "TGI", "Measured Value": "> 100 µM"}
{"Compound": "C=CCC1(CN(C)C)CC/C(=C\\c2ccc(Cl)cc2)C1=O (configuration not stated)", "Endpoint Name": "TGI", "Measured Value": "> 100 µM"}
{"Compound": "O=C1c2ccccc2C(=O)c2c1nc1ccccc1c2-c1cncc(-c2c3c(nc4ccccc24)C(=O)c2ccccc2C3=O)c1", "Endpoint Name": "TGI", "Measured Value": "> 75.6 µM"}
{"Compound": "C=CCN(C(=O)CNC(=O)C(F)(F)F)c1cc(OCc2ccccc2)c2c(c1)c(C)cn2S(=O)(=O)c1ccccc1", "Endpoint Name": "TGI", "Measured Value": "> 100 µM"}
{"Compound": "CCc1c(Cl)c(C)cc(O)c1Cl", "Endpoint Name": "TGI", "Measured Value": "> 100 µM"}
{"Compound": "CCOC(=O)C1SC(=Nc2ccccc2)N=C1C (configuration not stated)", "Endpoint Name": "TGI", "Measured Value": "> 100 µM"}
{"Compound": "CSc1ccsc1-c1sc(-c2cc(SC)c(-c3sc(-c4cc(SC)c(-c5sccc5SC)s4)cc3SC)s2)cc1SC", "Endpoint Name": "TGI", "Measured Value": "> 100 µM"}
